Data provenance is ChEMBL document CHEMBL4346706.

assay: Cytotoxicity against human HL60 cells assessed as growth inhibition after 24 hrs by resazurin dye based assay; type: cell-based, HL-60
We begin with a simple list: items and their reported GI50 at 24 h.
readout_label: GI50 at 24 h (µM)

INSERT INTO measurements (item_smiles, reported) VALUES
  ('C#CCOC(=O)[C@H](CC)[C@H]1CC[C@H](C)[C@H]([C@@H](C)[C@H](O)[C@H](C)C(=O)[C@H](CC)[C@H]2O[C@]3(C=CC(=O)[C@]4(CC[C@@](C)([C@H]5CC[C@](O)(CC)[C@H](C)O5)O4)O3)[C@H](C)C[C@@H]2C)O1', 29.6),
  ('CC[C@@H](C(=O)[C@@H](C)[C@@H](O)[C@H](C)[C@@H]1O[C@@H]([C@@H](CC)C(=O)O)CC[C@@H]1C)[C@H]1O[C@]2(C=C[C@@H](O)[C@]3(CC[C@@](C)([C@H]4CC[C@](O)(CC)[C@H](C)O4)O3)O2)[C@H](C)C[C@@H]1C', 6.63),
  ('CC[C@@H](C(=O)[C@@H](C)[C@@H](O)[C@H](C)[C@@H]1O[C@@H]([C@@H](CC)C(=O)O)CC[C@@H]1C)[C@H]1O[C@]2(C=CC(=O)[C@]3(CC[C@@](C)([C@H]4CC[C@](O)(CC)[C@H](C)O4)O3)O2)[C@H](C)C[C@@H]1C', 9.21),
  ('CC[C@@H](C(=O)[C@@H](C)[C@@H](O)[C@H](C)[C@@H]1O[C@@H]([C@@H](CC)C(=O)ONC(=O)c2ccccc2)CC[C@@H]1C)[C@H]1O[C@]2(C=CC(=O)[C@]3(CC[C@@](C)([C@H]4CC[C@](O)(CC)[C@H](C)O4)O3)O2)[C@H](C)C[C@@H]1C', 2.24);

====

test system: Trypanosoma brucei; test: Antitrypanosomal activity against bloodstream form of Trypanosoma brucei 427-221a assessed as growth inhibition measured after 72 hrs by resazurin dye based assay
// values below are reported GI50
readout_label: GI50 (nM)

INSERT INTO results (item_smiles, unit_annotation, reported) VALUES
  ('C#CCNC(=O)[C@H](CC)[C@H]1CC[C@H](C)[C@H]([C@@H](C)[C@H](O)[C@H](C)C(=O)[C@H](CC)[C@H]2O[C@]3(C=C[C@@H](O)[C@]4(CC[C@@](C)([C@H]5CC[C@](O)(CC)[C@H](C)O5)O4)O3)[C@H](C)C[C@@H]2C)O1', 'nM', 3060),
  ('CC[C@@H](C(=O)[C@@H](C)[C@@H](O)[C@H](C)[C@@H]1O[C@@H]([C@@H](CC)C(=O)O)CC[C@@H]1C)[C@H]1O[C@]2(C=CC(=O)[C@]3(CC[C@@](C)([C@H]4CC[C@](O)(CC)[C@H](C)O4)O3)O2)[C@H](C)C[C@@H]1C', 'nM', 37),
  ('CC[C@@H](C(=O)[C@@H](C)[C@@H](O)[C@H](C)[C@@H]1O[C@@H]([C@@H](CC)C(=O)ONC(=O)c2ccccc2)CC[C@@H]1C)[C@H]1O[C@]2(C=C[C@@H](O)[C@]3(CC[C@@](C)([C@H]4CC[C@](O)(CC)[C@H](C)O4)O3)O2)[C@H](C)C[C@@H]1C', 'nM', 170),
  ('CC[C@@H](C(=O)[C@@H](C)[C@@H](O)[C@H](C)[C@@H]1O[C@@H]([C@@H](CC)C(=O)O)CC[C@@H]1C)[C@H]1O[C@]2(C=C[C@@H](O)[C@]3(CC[C@@](C)([C@H]4CC[C@](O)(CC)[C@H](C)O4)O3)O2)[C@H](C)C[C@@H]1C', 'nM', 210),
  ('CC[C@@H](C(=O)[C@@H](C)[C@@H](O)[C@H](C)[C@@H]1O[C@@H]([C@@H](CC)C(=O)OCC(F)(F)F)CC[C@@H]1C)[C@H]1O[C@]2(C=C[C@@H](O)[C@]3(CC[C@@](C)([C@H]4CC[C@](O)(CC)[C@H](C)O4)O3)O2)[C@H](C)C[C@@H]1C', 'nM', 2900),
  ('CC[C@@H](C(=O)[C@@H](C)[C@@H](O)[C@H](C)[C@@H]1O[C@@H]([C@@H](CC)C(=O)NCCc2ccc(F)cc2)CC[C@@H]1C)[C@H]1O[C@]2(C=CC(=O)[C@]3(CC[C@@](C)([C@H]4CC[C@](O)(CC)[C@H](C)O4)O3)O2)[C@H](C)C[C@@H]1C', 'nM', 2990),
  ('C#CCOC(=O)[C@H](CC)[C@H]1CC[C@H](C)[C@H]([C@@H](C)[C@H](O)[C@H](C)C(=O)[C@H](CC)[C@H]2O[C@]3(C=C[C@@H](O)[C@]4(CC[C@@](C)([C@H]5CC[C@](O)(CC)[C@H](C)O5)O4)O3)[C@H](C)C[C@@H]2C)O1', 'nM', 2930),
  ('CC[C@@H](C(=O)[C@@H](C)[C@@H](O)[C@H](C)[C@@H]1O[C@@H]([C@@H](CC)C(=O)ONC(=O)c2ccccc2O)CC[C@@H]1C)[C@H]1O[C@]2(C=CC(=O)[C@]3(CC[C@@](C)([C@H]4CC[C@](O)(CC)[C@H](C)O4)O3)O2)[C@H](C)C[C@@H]1C', 'nM', 34),
  ('CC[C@@H](C(=O)[C@@H](C)[C@@H](O)[C@H](C)[C@@H]1O[C@@H]([C@@H](CC)C(=O)ONC(=O)c2ccccc2O)CC[C@@H]1C)[C@H]1O[C@]2(C=C[C@@H](O)[C@]3(CC[C@@](C)([C@H]4CC[C@](O)(CC)[C@H](C)O4)O3)O2)[C@H](C)C[C@@H]1C', 'nM', 35),
  ('CC[C@@H](C(=O)[C@@H](C)[C@@H](O)[C@H](C)[C@@H]1O[C@@H]([C@@H](CC)C(=O)NCCc2ccc(F)cc2)CC[C@@H]1C)[C@H]1O[C@]2(C=C[C@@H](O)[C@]3(CC[C@@](C)([C@H]4CC[C@](O)(CC)[C@H](C)O4)O3)O2)[C@H](C)C[C@@H]1C', 'nM', 2870),
  ('CC[C@@H](C(=O)[C@@H](C)[C@@H](O)[C@H](C)[C@@H]1O[C@@H]([C@@H](CC)C(=O)ONC(=O)c2ccccc2)CC[C@@H]1C)[C@H]1O[C@]2(C=CC(=O)[C@]3(CC[C@@](C)([C@H]4CC[C@](O)(CC)[C@H](C)O4)O3)O2)[C@H](C)C[C@@H]1C', 'nM', 32),
  ('Cc1ccc(C(=O)Nc2ccc(S(=O)(=O)O)c3cc(S(=O)(=O)O)cc(S(=O)(=O)O)c23)cc1NC(=O)c1cccc(NC(=O)Nc2cccc(C(=O)Nc3cc(C(=O)Nc4ccc(S(=O)(=O)O)c5cc(S(=O)(=O)O)cc(S(=O)(=O)O)c45)ccc3C)c2)c1', 'nM', 32),
  ('C#CCNC(=O)[C@H](CC)[C@H]1CC[C@H](C)[C@H]([C@@H](C)[C@H](O)[C@H](C)C(=O)[C@H](CC)[C@H]2O[C@]3(C=CC(=O)[C@]4(CC[C@@](C)([C@H]5CC[C@](O)(CC)[C@H](C)O5)O4)O3)[C@H](C)C[C@@H]2C)O1', 'nM', 3180),
  ('C#CCNC(=O)[C@H](CC)[C@H]1CC[C@H](C)[C@H]([C@@H](C)[C@H](O)[C@H](C)C(=O)[C@H](CC)[C@H]2O[C@]3(C=C[C@@H](NCC#C)[C@]4(CC[C@@](C)([C@H]5CC[C@](O)(CC)[C@H](C)O5)O4)O3)[C@H](C)C[C@@H]2C)O1', 'nM', 3040);

====

system: Trypanosoma brucei; experiment: Antitrypanosomal activity against bloodstream form of Trypanosoma brucei 427-221a assessed as growth inhibition measured after 72 hrs by resazurin dye based assay
Each entry below lists one item and its recorded GI50 value.
readout_label: GI50 (µM)

INSERT INTO results (item_smiles, readout_label, unit_annotation, reported) VALUES
  ('C#CCOC(=O)[C@H](CC)[C@H]1CC[C@H](C)[C@H]([C@@H](C)[C@H](O)[C@H](C)C(=O)[C@H](CC)[C@H]2O[C@]3(C=CC(=O)[C@]4(CC[C@@](C)([C@H]5CC[C@](O)(CC)[C@H](C)O5)O4)O3)[C@H](C)C[C@@H]2C)O1', 'GI50', 'µM', 3.03),
  ('CC[C@@H](C(=O)[C@@H](C)[C@@H](O)[C@H](C)[C@@H]1O[C@@H]([C@@H](CC)C(=O)OCC(F)(F)F)CC[C@@H]1C)[C@H]1O[C@]2(C=CC(=O)[C@]3(CC[C@@](C)([C@H]4CC[C@](O)(CC)[C@H](C)O4)O3)O2)[C@H](C)C[C@@H]1C', 'GI50', 'µM', 3.01),
  ('C#CCN[C@@H]1C=C[C@]2(O[C@H]([C@@H](CC)C(=O)[C@@H](C)[C@@H](O)[C@H](C)[C@@H]3O[C@@H]([C@@H](CC)C(=O)O)CC[C@@H]3C)[C@@H](C)C[C@H]2C)O[C@@]12CC[C@@](C)([C@H]1CC[C@](O)(CC)[C@H](C)O1)O2', 'GI50', 'µM', 0.035);
